Target: NaV1.6 (Homo sapiens (Human), UniProt Q9UQD0)
Test: Sodium Influx Assay (Flux), NaV1.6
Conditions: read-out: Flux NaV1.6 IC50; Trex HEK293 cells, ANG2 dye; arithmetic mean
READOUT: IC50 (nM)

COMPOUND	READOUT	RESULT_UNIT	RECORDED_VALUE
CN(c1cc(F)c(S(=O)(=O)Nc2cscn2)cc1Cl)[C@H]1CCN(Cc2cccs2)C1 [Example 215]	IC50	nM	5200
Cc1cc(S(=O)(=O)Nc2cscn2)c(F)cc1N(C)[C@H]1CCN(Cc2csc(C(C)C)n2)C1 [Example 107, 2,2,2-trifluoroacetate]	IC50	nM	49
O=S(=O)(Nc1nccs1)c1ccc(O[C@H]2C[C@H]3CC[C@@H](C2)N3Cc2ccccc2)c(Cl)c1 [Example 15]	IC50	nM	2570
CN(c1cc(F)c(S(=O)(=O)Nc2cscn2)cc1Cl)[C@H]1CCN(Cc2ccc(Cl)cc2)C1 [Example 188]	IC50	nM	4140
COc1cccc(CN2CC[C@H](N(C)c3cc(F)c(S(=O)(=O)Nc4cscn4)cc3Cl)C2)c1 [Example 219]	IC50	nM	3200
CN(c1cc(F)c(S(=O)(=O)Nc2cscn2)cc1Cl)[C@H]1CCN(Cc2cccc(C(F)F)c2)C1 [Example 193]	IC50	nM	774
CN(c1cc(F)c(S(=O)(=O)Nc2nccs2)cc1Cl)C1CCN(Cc2ccccc2)CC1 [Example 53]	IC50	nM	601

----------
Target: NaV1.1 (Homo sapiens (Human), UniProt P35498)
Assay: Sodium Influx Assay (Flux), NaV1.1
Assay type: cell-based
Details: Trex HEK293 cells, ANG2 dye; arithmetic mean
Counter-ions that a name gives are not always drawn.
Consider the following compounds and their measured IC50 readings.

COMPOUND	COMPARISON_SIGN	IC50, µM
CC(C)(c1ccccc1)N1CCC(Oc2cc(F)c(S(=O)(=O)Nc3nccs3)cc2Cl)CC1 [Example 60, 2,2,2-trifluoroacetate]	=	13.3
CN(c1cc(F)c(S(=O)(=O)Nc2cscn2)cc1Cl)[C@H]1CCN([C@H]2CCc3ccccc32)C1 [Example 249, 2,2,2-trifluoroacetate]	=	11.2
CN(c1cc(F)c(S(=O)(=O)Nc2cscn2)cc1Cl)[C@H]1CCN(Cc2cccc(C(C)(C)O)c2)C1 [Example 161, formate]	=	26
O=S(=O)(Nc1nccs1)c1cc(Cl)c(O[C@@H]2C[C@H]3CC[C@@H](C2)N3Cc2cccc(Cl)c2)cc1F	>	30
Cc1cc(S(=O)(=O)Nc2cscn2)c(F)cc1N(C)[C@H]1CCN(Cc2cc3ccccn3n2)C1	=	26.9
CN(c1cc(F)c(S(=O)(=O)Nc2cscn2)cc1Cl)[C@H]1CCN(Cc2ccccc2Cl)C1	=	5.36
CC1(C)CN(Cc2cc(Cl)cc(Cl)c2)CCC1Oc1ccc(S(=O)(=O)Nc2ncns2)cc1Cl (stereo not shown) [Example 4, 2,2,2-trifluoroacetate]	>	30

----------
Target: NaV1.1 (Homo sapiens (Human), UniProt P35498)
Assay: Sodium Influx Assay (Flux), NaV1.1
Type: cell-based
Details: Trex HEK293 cells, ANG2 dye; arithmetic mean
Where a name gives a salt, the structure may show the parent alone.

COMPOUND	RESULT_UNIT	COMPARISON_SIGN	IC50
Cc1cc(S(=O)(=O)Nc2cscn2)c(F)cc1N(C)C1CCN([C@H](C)c2ccccc2)CC1 [Example 281, 2,2,2-trifluoroacetate]	µM	=	14.6
CN(c1ccc(S(=O)(=O)Nc2ncns2)cc1Cl)[C@H]1CCN(Cc2ccccc2)C1 [Example 29, hydrochloride salt]	µM	>	30
Cc1c(N(C)[C@H]2CCN(Cc3ccccc3)C2)cc(F)c(S(=O)(=O)Nc2cccc(F)n2)c1F [Example 298, formate]	µM	=	26
C[C@H](c1cc(C(F)F)ccc1F)N1CCC(Oc2ccc(S(=O)(=O)Nc3cscn3)cc2Cl)CC1 [Example 292, formate]	µM	=	3.79
C[C@H]1C[C@@H](Oc2ccc(S(=O)(=O)Nc3nccs3)cc2Cl)CCN1Cc1ccccc1 (relative stereo) [Example 72]	µM	=	6.81
CN(c1cc(F)c(S(=O)(=O)Nc2nccs2)cc1Cl)[C@H]1CCN(Cc2ccccc2)C1 [Example 39, bis(trifluoroacetic acid) salt]	µM	=	4.96
O=S(=O)(Nc1cscn1)c1cc(Cl)c(N[C@H]2CCN(Cc3ccccc3)C2)cc1F [Example 258, formate]	µM	=	12.9

----------
Consider the following compounds and their measured IC50 readings.
Target: UniProt Q9UQD0
Assay: Sodium Influx Assay (Flux), NaV1.6
Conditions: read-out: Flux NaV1.6 IC50; Trex HEK293 cells, ANG2 dye; arithmetic mean

COMPOUND	TARGET_OR_TEST_SYSTEM	IC50
Cc1cc(S(=O)(=O)Nc2cscn2)ccc1N(C)[C@H]1CCN(Cc2cc(F)ccc2F)C1 [Example 285, 2,2,2-trifluoroacetate]	UniProt Q9UQD0	389 nM
Cc1ccc(CN2CC[C@H](N(C)c3cc(F)c(S(=O)(=O)Nc4cscn4)cc3Cl)C2)o1 [Example 204]	UniProt Q9UQD0	1780 nM
CN(c1cc(F)c(S(=O)(=O)Nc2cscn2)cc1Cl)[C@H]1CCN(Cc2ccccc2F)C1 [Example 218]	UniProt Q9UQD0	2000 nM
O=S(=O)(Nc1nccs1)c1ccc(OC2CCN(Cc3cccc(C(F)F)c3)CC2)c(Cl)c1 [Example 11]	UniProt Q9UQD0	253 nM

----------
Target: NaV1.5 (Homo sapiens (Human), UniProt Q14524)
Sequence (Q14524 other isoform, or with tags, fused parts or gaps): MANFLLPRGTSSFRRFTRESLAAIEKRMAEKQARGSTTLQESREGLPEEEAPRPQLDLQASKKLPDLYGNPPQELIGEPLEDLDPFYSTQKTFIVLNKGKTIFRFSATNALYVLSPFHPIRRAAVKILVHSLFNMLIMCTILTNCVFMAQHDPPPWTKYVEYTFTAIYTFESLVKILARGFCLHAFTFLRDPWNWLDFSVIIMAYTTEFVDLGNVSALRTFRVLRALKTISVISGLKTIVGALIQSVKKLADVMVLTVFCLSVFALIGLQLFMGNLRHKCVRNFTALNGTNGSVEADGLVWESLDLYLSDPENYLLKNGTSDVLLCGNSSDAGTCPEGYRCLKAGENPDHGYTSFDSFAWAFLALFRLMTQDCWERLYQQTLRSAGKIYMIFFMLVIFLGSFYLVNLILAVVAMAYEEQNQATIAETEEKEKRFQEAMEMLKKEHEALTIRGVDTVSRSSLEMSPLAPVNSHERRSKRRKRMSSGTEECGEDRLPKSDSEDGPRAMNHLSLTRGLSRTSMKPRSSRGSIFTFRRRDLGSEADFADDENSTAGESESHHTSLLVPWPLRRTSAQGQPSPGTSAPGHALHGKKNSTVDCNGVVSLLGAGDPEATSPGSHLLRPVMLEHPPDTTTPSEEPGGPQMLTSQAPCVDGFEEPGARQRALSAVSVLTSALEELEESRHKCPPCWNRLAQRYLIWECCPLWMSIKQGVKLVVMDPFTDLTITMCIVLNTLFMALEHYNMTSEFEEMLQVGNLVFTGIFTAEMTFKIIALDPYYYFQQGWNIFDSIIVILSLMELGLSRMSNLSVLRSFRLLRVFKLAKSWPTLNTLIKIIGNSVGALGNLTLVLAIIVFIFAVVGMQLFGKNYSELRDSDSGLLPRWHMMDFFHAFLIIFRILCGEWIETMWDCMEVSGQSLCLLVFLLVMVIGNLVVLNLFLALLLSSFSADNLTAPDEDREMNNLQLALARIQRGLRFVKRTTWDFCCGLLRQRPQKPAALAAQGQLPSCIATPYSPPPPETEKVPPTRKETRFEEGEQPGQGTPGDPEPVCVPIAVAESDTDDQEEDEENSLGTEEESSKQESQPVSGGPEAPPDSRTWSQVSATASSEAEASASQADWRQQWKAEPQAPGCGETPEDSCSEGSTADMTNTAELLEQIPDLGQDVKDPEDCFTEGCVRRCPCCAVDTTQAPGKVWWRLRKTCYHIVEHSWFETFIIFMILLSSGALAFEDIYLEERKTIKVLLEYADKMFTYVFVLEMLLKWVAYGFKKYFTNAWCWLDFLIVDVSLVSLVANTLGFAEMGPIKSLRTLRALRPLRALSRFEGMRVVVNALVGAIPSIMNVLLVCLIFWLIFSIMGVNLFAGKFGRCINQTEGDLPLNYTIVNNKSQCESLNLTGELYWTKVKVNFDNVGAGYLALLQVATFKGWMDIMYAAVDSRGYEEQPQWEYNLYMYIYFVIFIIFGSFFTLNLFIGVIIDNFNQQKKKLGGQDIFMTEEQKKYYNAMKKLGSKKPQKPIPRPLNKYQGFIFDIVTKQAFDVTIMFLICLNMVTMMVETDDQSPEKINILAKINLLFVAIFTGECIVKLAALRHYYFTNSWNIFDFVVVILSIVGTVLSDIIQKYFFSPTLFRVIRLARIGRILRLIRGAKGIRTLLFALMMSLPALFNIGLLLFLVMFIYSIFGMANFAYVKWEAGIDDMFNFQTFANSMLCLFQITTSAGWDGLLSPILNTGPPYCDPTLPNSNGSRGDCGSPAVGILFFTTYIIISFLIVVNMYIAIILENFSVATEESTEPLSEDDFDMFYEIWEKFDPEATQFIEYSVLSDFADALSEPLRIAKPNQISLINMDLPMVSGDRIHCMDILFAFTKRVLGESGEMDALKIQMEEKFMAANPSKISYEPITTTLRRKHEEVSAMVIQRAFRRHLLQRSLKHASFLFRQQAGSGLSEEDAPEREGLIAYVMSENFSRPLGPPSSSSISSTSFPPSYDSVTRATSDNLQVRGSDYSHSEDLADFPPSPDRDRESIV
Assay: Sodium Influx Assay (Flux), NaV1.5
Settings: read-out: Flux NaV1.5 IC50; Trex HEK293 cells, ANG2 dye; arithmetic mean
pIC50: −log10 of the molar value.
READOUT: pIC50

COMPOUND	COMPARISON_SIGN	RECORDED_VALUE
C[C@H](c1ccccc1)N1CCC(Oc2ccc(S(=O)(=O)Nc3ncc(F)cn3)cc2Cl)CC1 [Example 304]	<	4.52
CN(c1cc(F)c(S(=O)(=O)Nc2cscn2)cc1C1CC1)[C@H]1CCN(Cc2ccccc2)C1 [Example 289, 2,2,2-trifluoroacetate]	=	4.71
Cc1cc(S(=O)(=O)Nc2cscn2)c(F)cc1N(C)[C@H]1CCN(Cc2ccn(CC(F)(F)F)n2)C1 [Example 118]	<	4.52
O=S(=O)(Nc1nccs1)c1ccc(N[C@@H]2CCN(Cc3cccc(Cl)c3)C2)c(Cl)c1 [Example 69]	=	5.21

----------
Consider the following molecules and their measured IC50 readings.
Molecular target: NaV1.6 (Homo sapiens (Human))
Assay: Sodium Influx Assay (Flux), NaV1.6
Conditions: read-out: Flux NaV1.6 IC50; Trex HEK293 cells, ANG2 dye; arithmetic mean
Where a name gives a salt, the structure may show the parent alone.
READOUT: IC50 (nM)

MOLECULE	RECORDED_VALUE
Cc1cc(S(=O)(=O)Nc2cscn2)c(F)cc1N(C)[C@H]1CCN([C@H]2C[C@H](c3ccccc3)C2)C1	1440
CN(c1cc(F)c(S(=O)(=O)Nc2cscn2)cc1Cl)[C@H]1CCN(Cc2ccc[nH]2)C1	4320
Cc1cc(S(=O)(=O)Nc2cscn2)c(F)cc1N(C)[C@H]1CCN(Cc2nc(C3CC3)cs2)C1	412
C[C@H](c1ccccc1)N1CCC(Oc2ccc(S(=O)(=O)Nc3cscn3)cc2Cl)CC1 [Example 57, 2,2,2-trifluoroacetate]	970
O=S(=O)(Nc1nccs1)c1cc(Cl)c(O[C@@H]2C[C@H]3CC[C@@H](C2)N3Cc2ccccc2)cc1F	392
C[C@H](c1ccccc1)N1CCC(Oc2ccc(S(=O)(=O)Nc3cscn3)c(F)c2Cl)CC1 [Example 227, formate]	855
O=S(=O)(Nc1nccs1)c1ccc(N[C@@H]2CCN(Cc3cccc(Cl)c3)C2)c(Cl)c1	697
O=S(=O)(Nc1cscn1)c1ccc(O[C@@H]2C[C@H]3CC[C@@H](C2)N3Cc2ccccc2)c(Cl)c1	5460
C[C@H](c1ccccc1)N1CC[C@H](N(C)c2ccc(S(=O)(=O)Nc3nccs3)cc2Cl)C1	100
O=S(=O)(Nc1cscn1)c1cc(Cl)c(N[C@@H]2CN(Cc3ccccc3)CC23CC3)cc1F [Example 264, 2,2,2-trifluoroacetate]	4780
C[C@H](c1ccccc1)N1CCC(Oc2ccc(S(=O)(=O)Nc3cscn3)c(F)c2F)CC1 [Example 313, formate]	936
CN(c1cc(F)c(S(=O)(=O)Nc2cscn2)cc1Cl)[C@H]1CCN(Cc2cccc(C(F)F)n2)C1	1690
Cc1cc(S(=O)(=O)Nc2cscn2)c(F)cc1N(C)[C@H]1CCN(Cc2cccc(F)c2)C1	211
Cc1ccnc(CN2CC[C@H](N(C)c3cc(F)c(S(=O)(=O)Nc4cscn4)cc3Cl)C2)c1	3710
CN(c1ccc(S(=O)(=O)Nc2cscn2)cc1Cl)[C@H]1CCN(Cc2cccc(C(F)F)c2)C1 [Example 253, formate]	756

----------
Consider the following molecules and their measured IC50 readings.
Molecular target: NaV1.6 (Homo sapiens (Human), UniProt Q9UQD0)
Assay: Sodium Influx Assay (Flux), NaV1.6
Conditions: read-out: Flux NaV1.6 IC50; Trex HEK293 cells, ANG2 dye; arithmetic mean

MOLECULE	TARGET_OR_TEST_SYSTEM	IC50, nM
Cc1ccc(F)c(CN2CC[C@H](N(C)c3ccc(S(=O)(=O)Nc4ncns4)cc3Cl)C2)c1	NaV1.6 (Homo sapiens (Human), UniProt Q9UQD0)	21
Cc1cc(S(=O)(=O)Nc2cscn2)c(F)cc1N(C)[C@H]1CCN(Cc2cc3ccccn3n2)C1	NaV1.6 (Homo sapiens (Human), UniProt Q9UQD0)	1720
CC[C@H](c1ccccc1)N1CC[C@H](N(C)c2cc(F)c(S(=O)(=O)Nc3cscn3)cc2Cl)C1	NaV1.6 (Homo sapiens (Human), UniProt Q9UQD0)	1060
C[C@H](c1ccccc1)N1CCC(Oc2cc(F)c(S(=O)(=O)Nc3nccs3)cc2Cl)CC1 [Example 56, 2,2,2-trifluoroacetate]	NaV1.6 (Homo sapiens (Human), UniProt Q9UQD0)	392
